IC50 (µg/ml) with constrains for assorted binders
target: HIV Env of isolate Ce0682_E4 (clade C) (HIV); assay: cell-based or functional assay
Experimental Readout: IC50 (µg/ml) with constrains (µg/mL)

{"Binder": "PGDM1400 (antibody, V domains shown) VH: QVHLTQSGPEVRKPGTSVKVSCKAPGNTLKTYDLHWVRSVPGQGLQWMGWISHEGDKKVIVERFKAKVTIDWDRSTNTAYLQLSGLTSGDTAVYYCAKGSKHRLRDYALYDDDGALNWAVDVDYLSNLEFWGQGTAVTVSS VL: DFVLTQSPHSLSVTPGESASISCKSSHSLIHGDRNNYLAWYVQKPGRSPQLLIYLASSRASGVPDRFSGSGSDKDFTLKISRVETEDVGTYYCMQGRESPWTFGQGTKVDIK", "Experimental Readout": "IC50 (µg/ml) with constrains", "Experimental Value": 0.009}
{"Binder": "ePGDM9 (antibody, V domains shown) VH: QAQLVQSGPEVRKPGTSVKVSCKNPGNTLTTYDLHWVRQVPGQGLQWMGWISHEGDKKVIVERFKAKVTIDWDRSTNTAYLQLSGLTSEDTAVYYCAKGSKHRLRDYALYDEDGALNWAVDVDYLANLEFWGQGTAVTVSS VL: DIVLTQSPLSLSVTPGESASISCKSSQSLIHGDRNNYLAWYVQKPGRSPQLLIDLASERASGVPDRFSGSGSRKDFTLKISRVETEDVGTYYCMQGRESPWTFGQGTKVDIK", "Experimental Readout": "IC50 (µg/ml) with constrains", "Experimental Value": 0.005}
{"Binder": "ePGDM13 (antibody, V domains shown) VH: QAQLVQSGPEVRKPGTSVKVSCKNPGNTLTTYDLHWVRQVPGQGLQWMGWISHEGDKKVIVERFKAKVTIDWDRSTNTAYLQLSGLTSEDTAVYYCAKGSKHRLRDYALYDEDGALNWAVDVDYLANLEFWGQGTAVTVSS VL: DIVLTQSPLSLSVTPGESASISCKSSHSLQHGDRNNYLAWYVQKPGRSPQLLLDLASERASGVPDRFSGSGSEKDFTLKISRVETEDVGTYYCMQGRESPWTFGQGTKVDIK", "Experimental Readout": "IC50 (µg/ml) with constrains", "Experimental Value": 0.011}

Source: patent US20230134571A1
